Overview of recorded Emax for various compounds
assayedSystem: sGC α1/β1 heterodimer (Homo sapiens, UniProt Q02108+Q02153)
Construct: expressed in transfected cells; host or cells: CHO-K1 (clone #7, CHO-K1/sGC)
Sequence (Q02108 whole entry): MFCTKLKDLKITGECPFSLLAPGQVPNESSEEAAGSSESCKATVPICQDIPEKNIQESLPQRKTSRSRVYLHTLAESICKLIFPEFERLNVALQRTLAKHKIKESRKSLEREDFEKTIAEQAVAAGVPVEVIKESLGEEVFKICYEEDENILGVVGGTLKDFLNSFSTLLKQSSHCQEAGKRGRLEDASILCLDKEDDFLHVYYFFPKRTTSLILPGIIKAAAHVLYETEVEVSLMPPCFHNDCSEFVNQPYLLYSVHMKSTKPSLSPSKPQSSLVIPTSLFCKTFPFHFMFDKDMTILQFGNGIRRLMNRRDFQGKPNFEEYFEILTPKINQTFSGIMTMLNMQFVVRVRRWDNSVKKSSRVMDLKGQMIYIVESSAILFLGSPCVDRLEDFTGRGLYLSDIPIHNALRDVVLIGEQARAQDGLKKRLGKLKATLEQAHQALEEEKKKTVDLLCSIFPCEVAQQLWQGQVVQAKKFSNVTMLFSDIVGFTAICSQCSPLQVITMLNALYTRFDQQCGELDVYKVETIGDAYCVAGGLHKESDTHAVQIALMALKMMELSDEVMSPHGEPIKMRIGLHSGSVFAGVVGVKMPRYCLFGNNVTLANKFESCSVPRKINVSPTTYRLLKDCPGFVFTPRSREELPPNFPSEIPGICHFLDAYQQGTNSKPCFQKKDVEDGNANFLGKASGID
Sequence (Q02153 whole entry): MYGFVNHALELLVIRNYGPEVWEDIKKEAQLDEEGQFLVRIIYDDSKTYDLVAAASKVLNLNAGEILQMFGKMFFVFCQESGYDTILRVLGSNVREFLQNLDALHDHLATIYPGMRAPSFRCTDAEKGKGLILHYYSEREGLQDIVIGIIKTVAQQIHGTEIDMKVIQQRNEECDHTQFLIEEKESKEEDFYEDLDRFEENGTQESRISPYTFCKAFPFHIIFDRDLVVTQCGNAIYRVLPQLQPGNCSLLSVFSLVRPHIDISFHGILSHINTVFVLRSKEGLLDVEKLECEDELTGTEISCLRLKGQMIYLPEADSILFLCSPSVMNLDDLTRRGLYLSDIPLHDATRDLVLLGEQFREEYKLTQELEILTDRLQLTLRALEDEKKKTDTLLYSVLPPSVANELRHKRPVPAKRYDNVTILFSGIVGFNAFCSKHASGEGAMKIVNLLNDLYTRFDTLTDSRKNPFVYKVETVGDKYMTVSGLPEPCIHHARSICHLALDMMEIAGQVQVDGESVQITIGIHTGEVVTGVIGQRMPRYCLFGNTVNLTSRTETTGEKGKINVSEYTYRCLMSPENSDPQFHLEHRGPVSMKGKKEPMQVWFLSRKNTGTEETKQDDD
experimentDescription: Cell-based sGC functional assay (CASA assay): cGMP generation in CHO-K1/sGC cells, HTRF detection
settings: CHO-K1, percent activation relative to standard Compound A in CHO-K1/sGC cells; read-out: % Act.
valueKind: Emax (%)

{"columns": ["compound", "resultUnits", "observedValue"],
 "data": [
  ["CCc1ccc(C2(C)C(=O)Nc3nc(-c4cn5ccnc5c(CCC(F)(F)C(F)(F)F)n4)nc(N)c32)nc1 (centres unmarked) [Example 242B]", "%", 133],
  ["CCOc1ccc(C2(C)C(=O)Nc3nc(-c4cn5ccnc5c(CCCC(F)(F)F)n4)nc(N)c32)nc1 (centres unmarked) [Example 216A]", "%", 77],
  ["CC(C)Cc1nc(-c2nc(N)c3c(n2)NC(=O)C3(C)c2ccc(Cl)cn2)cn2ccnc12 (centres unmarked) [Example 125A]", "%", 97],
  ["CC1(c2ccc(F)cc2)C(=O)Nc2nc(-c3cn4ccnc4c(CCC(F)(F)C(F)(F)F)n3)nc(N3CCOCC3)c21 (centres unmarked) [Example 310A]", "%", 77],
  ["CC1(F)CN(c2nc(-c3cn4ccnc4cn3)nc3c2C(C)(c2ccc(Cl)cc2)C(=O)N3)C1 (centres unmarked) [Example 284A]", "%", 120],
  ["Nc1nc(-c2cn3ccnc3c(CCC(F)(F)C(F)(F)F)n2)nc2c1C(c1ccccn1)(C1CC1)C(=O)N2 (centres unmarked) [Example 382B]", "%", 149],
  ["CC1(c2ccc(Cl)cc2)C(=O)Nc2nc(-c3cn4cc(C(F)(F)F)nc4c(Cc4ccccc4F)n3)nc(N)c21 (centres unmarked) [Example 151A]", "%", 106],
  ["Nc1nc(-c2cn3ccnc3c(CCC(F)(F)F)n2)nc2c1C(c1ccc(Cl)cc1)(C1CC1)C(=O)N2 (centres unmarked) [Example 198B]", "%", 112],
  ["CC1(c2ccc(OC(F)F)cn2)C(=O)Nc2nc(-c3cn4ccnc4c(CC4CCC4)n3)nc(N)c21 (centres unmarked) [Example 117A]", "%", 103],
  ["CC1(c2ccc(OC(F)(F)F)cc2)C(=O)Nc2nc(-c3cn4ccnc4c(CCC(F)(F)C(F)(F)F)n3)nc(N)c21 (centres unmarked) [Example 234B]", "%", 105],
  ["Nc1nc(-c2cn3ccnc3c(CCC(F)(F)C(F)(F)F)n2)nc2c1C(c1ncc(Cl)cn1)(C1CC1)C(=O)N2 (centres unmarked) [Example 349A]", "%", 107],
  ["CC1(c2ccc(F)cn2)C(=O)Nc2nc(-c3cn4c(N)cnc4c(CCC(F)(F)C(F)(F)F)n3)nc(N)c21 (centres unmarked) [Example 268B]", "%", 79],
  ["CC1(C(=O)NC2CC2)C(=O)Nc2nc(-c3cn4cc(C(F)(F)F)nc4c(Cc4ccc(F)c(F)c4)n3)nc(N)c21 (centres unmarked) [Example 52A]", "%", 93],
  ["CCCc1nc(-c2nc(N)c3c(n2)NC(=O)C3(C)c2ccc(Cl)cn2)cn2ccnc12 (centres unmarked) [Example 129A]", "%", 94]
]}

Recorded values, source patent US9796733B2.
